Assayed target: Indolethylamine N-methyltransferase (Oryctolagus cuniculus)
Sequence (O97972 whole entry): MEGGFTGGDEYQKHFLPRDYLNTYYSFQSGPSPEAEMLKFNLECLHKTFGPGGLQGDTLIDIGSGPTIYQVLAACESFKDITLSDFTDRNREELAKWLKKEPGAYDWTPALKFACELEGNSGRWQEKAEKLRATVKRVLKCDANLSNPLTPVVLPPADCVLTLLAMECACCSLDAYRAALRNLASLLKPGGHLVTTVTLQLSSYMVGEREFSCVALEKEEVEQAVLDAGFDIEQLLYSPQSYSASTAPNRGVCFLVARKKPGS
Assay method text: Inhibition of New Zealand white rabbit lung INMT using N-methyltryptamine as substrate after 60 to 90 mins by liquid scintillation counting in presence of S-methyl-[14C]adenosylmethionine
Parameter: pIC50
Convention used: pIC50 is expressed as -log10 of the molar concentration.

Query block: Any idea what pIC50 was measured for C/N=c1\cccc(F)n1C ?
Result block: 4.13

Query block: Any idea what pIC50 was measured for C/N=c1\cccc(NC)n1C ?
Result block: 4.88

Query block: Any idea what pIC50 was measured for C/N=c1\ccsn1C ?
Result block: 5.16

Query block: Any idea what pIC50 was measured for C/N=C1/NCCS1 ?
Result block: 5.11

Query block: Any idea what pIC50 was measured for CCCN1CCSC1=N ?
Result block: 5.00

Query block: Any idea what pIC50 was measured for ClC1CCCN2CCN=C12 (configuration not stated) ?
Result block: 4.28

Query block: Any idea what pIC50 was measured for C(=C1/CCC2=NCCCN21)/c1ccccc1 ?
Result block: 4.43

Query block: Any idea what pIC50 was measured for C1CN2CCSCC2=N1.O=C(O)/C=C/C(=O)O ?
Result block: 6.30

Query block: Any idea what pIC50 was measured for CN1CCSC1=N.I ?
Result block: 6.10

Query block: Any idea what pIC50 was measured for C/N=C1\CCCN1 ?
Result block: 4.57

Query block: Any idea what pIC50 was measured for CN1CCCC1=N ?
Result block: 5.82

Query block: Any idea what pIC50 was measured for C1=CN2CCN=C2CS1 ?
Result block: 4.74

* * *

For each record, write down the corresponding pIC50.
Assayed target: Indolethylamine N-methyltransferase (Oryctolagus cuniculus)
Assay method text: Inhibition of New Zealand white rabbit lung INMT using N-methyltryptamine as substrate after 60 to 90 mins by liquid scintillation counting in presence of S-methyl-[14C]adenosylmethionine
Convention used: pIC50 is expressed as -log10 of the molar concentration.

Query block: Test system Indolethylamine N-methyltransferase (Oryctolagus cuniculus); read-out pIC50; what value for CC1=CSCC2=NCCN12 ?
Result block: 4.34

Query block: Test system Indolethylamine N-methyltransferase (Oryctolagus cuniculus); read-out pIC50; what value for C=CCn1ccccc1=N ?
Result block: 5.80

Query block: Test system Indolethylamine N-methyltransferase (Oryctolagus cuniculus); read-out pIC50; what value for C/N=c1\cnsn1C ?
Result block: 5.28

Query block: Test system Indolethylamine N-methyltransferase (Oryctolagus cuniculus); read-out pIC50; what value for CC1CN(C)C(=N)S1 (configuration not stated) ?
Result block: 5.10

Query block: Test system Indolethylamine N-methyltransferase (Oryctolagus cuniculus); read-out pIC50; what value for Cn1cccc(C#N)c1=N ?
Result block: 3.75

Query block: Test system Indolethylamine N-methyltransferase (Oryctolagus cuniculus); read-out pIC50; what value for [O-][S+]1CCN2CCN=C2C1 (configuration not stated) ?
Result block: 5.44

Query block: Test system Indolethylamine N-methyltransferase (Oryctolagus cuniculus); read-out pIC50; what value for C#CCN1CCSC1=N ?
Result block: 4.86

Query block: Test system Indolethylamine N-methyltransferase (Oryctolagus cuniculus); read-out pIC50; what value for Cn1ccccc1=N ?
Result block: 5.80

Query block: Test system Indolethylamine N-methyltransferase (Oryctolagus cuniculus); read-out pIC50; what value for CC(C)CN1CCCC1=N ?
Result block: 4.71

Query block: Test system Indolethylamine N-methyltransferase (Oryctolagus cuniculus); read-out pIC50; what value for CN1CCCSC1=N ?
Result block: 5.70

Query block: Test system Indolethylamine N-methyltransferase (Oryctolagus cuniculus); read-out pIC50; what value for NC1=NCCC1 ?
Result block: 4.47

Query block: Test system Indolethylamine N-methyltransferase (Oryctolagus cuniculus); read-out pIC50; what value for C=CCN1CCSC1=N ?
Result block: 5.15

Query block: Test system Indolethylamine N-methyltransferase (Oryctolagus cuniculus); read-out pIC50; what value for C/N=C1\CSC=CN1C ?
Result block: 5.01

Query block: Test system Indolethylamine N-methyltransferase (Oryctolagus cuniculus); read-out pIC50; what value for C1CCN2CCN=C2C1 ?
Result block: 6.77

Query block: Test system Indolethylamine N-methyltransferase (Oryctolagus cuniculus); read-out pIC50; what value for CCN1CCCSC1=N ?
Result block: 5.74

Query block: Test system Indolethylamine N-methyltransferase (Oryctolagus cuniculus); read-out pIC50; what value for CC1(C)CC2=NCCN2C1 ?
Result block: 4.27

Query block: Test system Indolethylamine N-methyltransferase (Oryctolagus cuniculus); read-out pIC50; what value for CN1C=CCSC1=N ?
Result block: 5.70

Query block: Test system Indolethylamine N-methyltransferase (Oryctolagus cuniculus); read-out pIC50; what value for C1CN2CCOCC2=N1 ?
Result block: 4.86

Query block: Test system Indolethylamine N-methyltransferase (Oryctolagus cuniculus); read-out pIC50; what value for C1CCC2(CC1)CCC1=NCCN12 ?
Result block: 3.85

Query block: Test system Indolethylamine N-methyltransferase (Oryctolagus cuniculus); read-out pIC50; what value for Cc1ccn(C)c(=N)c1 ?
Result block: 5.55

Query block: Test system Indolethylamine N-methyltransferase (Oryctolagus cuniculus); read-out pIC50; what value for Cn1c(F)cccc1=N ?
Result block: 5.28

Query block: Test system Indolethylamine N-methyltransferase (Oryctolagus cuniculus); read-out pIC50; what value for C1CCN2CCCN=C2C1 ?
Result block: 6.15

Query block: Test system Indolethylamine N-methyltransferase (Oryctolagus cuniculus); read-out pIC50; what value for C[N+]1=C2CCCN2CCC1 ?
Result block: 4.41

Query block: Test system Indolethylamine N-methyltransferase (Oryctolagus cuniculus); read-out pIC50; what value for CC1CC2=NCCN2C1 (configuration not stated) ?
Result block: 5.42

Query block: Test system Indolethylamine N-methyltransferase (Oryctolagus cuniculus); read-out pIC50; what value for C=C1CN=C2CCCN2C1 ?
Result block: 4.36

Query block: Test system Indolethylamine N-methyltransferase (Oryctolagus cuniculus); read-out pIC50; what value for C1CC2=NCCN2C1 ?
Result block: 7.40

Query block: Test system Indolethylamine N-methyltransferase (Oryctolagus cuniculus); read-out pIC50; what value for Cc1cc(=N)sn1C ?
Result block: 4.71

Query block: Test system Indolethylamine N-methyltransferase (Oryctolagus cuniculus); read-out pIC50; what value for c1ccc2c(c1)CC1C2CC2=NCCN21 (configuration not stated) ?
Result block: 4.79

Query block: Test system Indolethylamine N-methyltransferase (Oryctolagus cuniculus); read-out pIC50; what value for CN1C=CSCC1=N ?
Result block: 5.52

Query block: Test system Indolethylamine N-methyltransferase (Oryctolagus cuniculus); read-out pIC50; what value for CCN1CCSC1=N ?
Result block: 6.70

Query block: Test system Indolethylamine N-methyltransferase (Oryctolagus cuniculus); read-out pIC50; what value for c1cn2c(n1)CCC2 ?
Result block: 4.08
